B1: TPR t1 (parent)
chain: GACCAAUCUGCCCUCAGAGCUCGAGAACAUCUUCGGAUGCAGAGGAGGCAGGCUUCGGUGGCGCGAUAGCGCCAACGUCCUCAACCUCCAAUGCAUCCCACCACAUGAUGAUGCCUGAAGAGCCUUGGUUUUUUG

# Variants of: B1
# experiment.summary: polymerase ribozyme fitness, log enrichment relative to wild type (log ratio); higher = more active; in vitro selection for triplet polymerase activity
The recorded polymerase ribozyme fitness (log ratio) of each item maps onto one of these classes: low group: < -2; middle group: ≥ -2 and < -1; high group: ≥ -1

Use the examples below as a reference point.
GACCAAUCUGCCCUCAGAGCUCGAGAACAUCUUCGGAUGCAGAGGAGGCAGGCUUCGGUGGCGCGAUAGCGCCAACGUCCUCAACCUUCAAUGCAUCCCUCCACAUGAUGAUGCCUGAAAAGCCUUGGUUUUUUG [C88U A100U G120A]	high group
GACCAAUCUGCCCUCAGAGCUCGAGAACAUCUUCGGAUGCAGAGGAGGCAGGCUUCGGUGACGCGAUAGCGCCAACGUCCUCAACCUCCAAAGCAUCCCACCACAUGAUGAUGCCUGAAGAGACUUUGUUUUUUG [G61A U92A C123A G127U]	middle group
GACCAAUCUGCCCUCAGAGCUCGAGAACAUCUUCGGAUGGAGAGGAGGCAGGCUUCGGUGGCGCGAUAGCGCCAACUUCCUCAACCUCCAAUGCAUCCCAGCACAUGAUGAAGCCUGAAGAGCCUUGGUUUUUUG [C40G G77U C101G U112A]	middle group
GACCAAUCUGCCCUCAGAGCUCGAGAACAUCUUCGGAUGCAGAGGAGCCAGGCUUCGGUGGCGCGAUAGCGCCAACGUCCUCAAACUCCAAUGCAUCCCACCACAUGAUGAUGCCUGAAGAGCCUUGGUUUUUUG [G48C C85A]	low group
GACCAAUCUGCCCUCAGAGCUCGAGAACAUCUUCGGAUGCAGAGGAGGCAGGCUUCGGUGGCGCGAUAGCGCCAACGCCCUCCACCUCCAAUGCAUCCCACUACAUGAUGAUGCCUGAAGAGCCUUGGUUUUUUG [U78C A83C C102U]	middle group
GAUCAAUCUGCCCUCAGAGCUCGAGAACAUCUUCGGAUGCAGAGGAGGCAGGCUUCGGUGGCGCGAUAGCGUCAACGUCCUCAACCUCCAAUGCAUCCCACCACAUGAUGAUGCCUGAAGAGCCUUGGUUUUUUG [C3U C72U]	high group
GACCAAUCUGCCCUCAGAGCUCGAGAACAUCUUCGGAUGCAGAUGAGGCAGGCUUCGGUGGCGCGAUAGAGCCAACGUCCUCAACCUCCAAUGCAUCCCACCACAUGAUGAUGCCUGAAGAGCCUUGGAUAUUUG [G44U C70A U129A U131A]	low group
GACCAGUCUGCCCUCAGAGCUCGAGAACAUCUUCGGUUGCAGAGGAGGCAGGCUUCGGUGGCGCGAUAGCGAUAACGUCCUCAACCUCCAAUGCAUCCCACCACAUGAUGAUGCCUUAAGAGCAUUGGUUUUUUG [A6G A37U C72A C73U G117U C124A]	high group

Bin? GACCAAUCUGCCCUCAGAGCUCGAGAACAUCUUCGGAUGCAGAGGAGGCAGGCUUCGGUGGCGCGAUAGCGCCAACAUCUUCAACCUCCAAUGCAUCACACCACAUGAUGAUGCCUGAAGAGGCUUGGUUUUUUG [G77A C80U C98A C123G]
low group

Try GACCAAUCUGCCCUCAGAGCUCGAGAACAUCUUCGGAUGCAGAGGAGGUAGGCUUCGGUGGCUCGAUAGCGCCAACGUCCUCAACCUCCAAUGCGUCCCACCACAUGAUGAAGCCUGAAGAGCCUUGGUUUUUUG [C49U G63U A95G U112A] next.
low group
